Target: Bcl-2-like protein 1 (Homo sapiens, UniProt Q07817, Y195A)
Sequence (Q07817 whole entry Y195A): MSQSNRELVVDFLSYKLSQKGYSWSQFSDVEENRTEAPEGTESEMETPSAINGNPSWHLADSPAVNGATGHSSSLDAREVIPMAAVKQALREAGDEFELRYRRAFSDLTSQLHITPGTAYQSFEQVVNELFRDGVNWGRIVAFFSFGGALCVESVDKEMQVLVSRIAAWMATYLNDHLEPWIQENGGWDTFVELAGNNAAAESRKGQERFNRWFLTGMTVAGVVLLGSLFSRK
Experiment: Binding affinity to human Bcl-XL Y195A mutant by surface plasma resonance based biosensor system
Readout Label: pKd
Please keep in mind that pKd is minus log10 of the molar concentration; only the number is needed.

**Q:** Determine its reported pKd: COc1ccccc1C1C2=C(N=c3s/c(=C\c4cccc(OCC(=O)O)c4)c(=O)n31)c1ccccc1CC2 (stereo unspecified)
**A:** 3.04

====

For each entry below, report its pIC50 value.
Molecular target: UniProtKB Q07817
Assay: Inhibition of human Bcl-XL
# log scale: pIC50 equals minus log10 of the concentration in mol/L

**Q:** Answer with pIC50 of O=C(O)c1cccc(-c2ccc(/C=c3\sc4n(c3=O)C(c3ccccc3F)C3=C(N=4)c4ccccc4CC3)o2)c1 (centres undefined) measured for UniProtKB Q07817.
**A:** 5.21

**Q:** Recall the reported pIC50 of COc1ccc(C2C3=C(N=c4s/c(=C\c5ccc(-c6cccc(C(=O)O)c6)o5)c(=O)n42)c2ccccc2CC3)cc1 (centres undefined) when tested on UniProtKB Q07817.
**A:** 5.16

**Q:** Name the value of pIC50 reported for COc1ccccc1C1C2=C(N=c3sc(=Cc4ccc(C=CC(=O)O)cc4)c(=O)n31)c1ccccc1CC2 (centres undefined) when tested on UniProtKB Q07817.
**A:** 4.90

**Q:** Recall the reported pIC50 of O=C(O)COc1cccc(/C=c2\sc3n(c2=O)C(c2cccc4ccccc24)C2=C(N=3)c3ccccc3CC2)c1 (centres undefined) on UniProtKB Q07817 and write it down.
**A:** 4.71

====

Record form. Attribute: Kd. Fill in for each entry.
Biological target: Bcl-2-like protein 1 (Homo sapiens, UniProt Q07817, Y101A)
Sequence (Q07817 whole entry Y101A): as the sequence (Q07817 whole entry Y195A) above, with Y101A, A195Y counted along it
Test: Binding affinity to human Bcl-XL Y101A mutant by surface plasma resonance based biosensor system

**Q:** Please give the documented Kd of COc1ccccc1C1C2=C(N=c3s/c(=C\c4cccc(OCC(=O)O)c4)c(=O)n31)c1ccccc1CC2 (stereo not drawn)
**A:** 6.94 µM

**Q:** Specify Kd for COc1ccc(C2C3=C(N=c4s/c(=C\c5ccc(OCc6cccc(C(=O)O)c6)c(OC)c5)c(=O)n42)c2ccccc2CC3)cc1 (stereo not drawn) and stop.
**A:** > 1000 µM

**Q:** Consider the compound COc1ccc(C2C3=C(N=c4s/c(=C\c5ccc(-c6cccc(C(=O)O)c6)o5)c(=O)n42)c2ccccc2CC3)cc1 (stereo not drawn) and give its recorded Kd.
**A:** > 1000 µM

====

Each entry below carries its measured IC50, system: Apoptosis regulator Bcl-2 (Homo sapiens, UniProt P10415).
Sequence (P10415 whole entry): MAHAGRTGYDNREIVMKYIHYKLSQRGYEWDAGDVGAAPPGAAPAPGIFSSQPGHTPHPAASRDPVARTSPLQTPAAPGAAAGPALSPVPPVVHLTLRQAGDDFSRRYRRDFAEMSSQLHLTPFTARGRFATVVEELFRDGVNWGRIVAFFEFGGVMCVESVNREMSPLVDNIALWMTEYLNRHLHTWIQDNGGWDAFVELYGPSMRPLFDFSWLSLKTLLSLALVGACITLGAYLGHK
// units = µM; emit number, no label

**Q:** Please look at this molecule and report its IC50: COc1ccc(C2C3=C(N=c4s/c(=C\c5ccc(OCc6cccc(C(=O)O)c6)c(OC)c5)c(=O)n42)c2ccccc2CC3)cc1 (configuration not stated)
**A:** 19.4

**Q:** Supply measured IC50 of COc1cccc(C2C3=C(N=c4s/c(=C\c5ccc(-c6cccc(C(=O)O)c6)o5)c(=O)n42)c2ccccc2CC3)c1 (configuration not stated) in your reply.
**A:** 11.1

====

Test: Cytotoxicity against human Bel7404 cells after 48 hrs by MTT assay
Settings: BEL-7404, 48 h
Could you please report measured EC50 for the items listed next?
# output: bare number, implied unit µM

**Q:** Give reported EC50 value for COc1ccccc1C1C2=C(N=c3s/c(=C\c4ccc(C(=O)O)cc4)c(=O)n31)c1ccccc1CC2 (stereo unspecified)
**A:** 9.7

**Q:** Give the reported value of EC50 for this record: COc1ccccc1C1C2=C(N=c3sc(=Cc4ccc(C=CC(=O)O)cc4)c(=O)n31)c1ccccc1CC2 (stereo unspecified)
**A:** 11.2

**Q:** Note EC50 for the compound shown: O=C(O)COc1cccc(/C=c2\sc3n(c2=O)C(c2cccc(F)c2)C2=C(N=3)c3ccccc3CC2)c1 (stereo unspecified)
**A:** 50.9

**Q:** Tell me its EC50 given CCOC(=O)COc1cccc(/C=c2\sc3n(c2=O)C(c2ccccc2OC)C2=C(N=3)c3ccccc3CC2)c1 (stereo unspecified) as the entry.
**A:** 92.3

**Q:** Answer with the recorded EC50 of O=C(O)COc1cccc(/C=c2\sc3n(c2=O)C(c2ccco2)C2=C(N=3)c3ccccc3CC2)c1 (stereo unspecified) only.
**A:** 14

====

Molecular target: Bcl-2-like protein 1 (Homo sapiens)
Test: Binding affinity to human Bcl-XL by surface plasma resonance based biosensor system
Readout Label: pKd
By convention, pKd is the negative base-10 log of a molar concentration.

**Q:** Please indicate pKd recorded for COc1ccccc1C1C2=C(N=c3s/c(=C\c4cccc(OCC(=O)O)c4)c(=O)n31)c1ccccc1CC2 (stereo unspecified)
**A:** 5.02

====

Molecular target: Induced myeloid leukemia cell differentiation protein Mcl-1 homolog (Mus musculus)
Sequence (P97287 whole entry): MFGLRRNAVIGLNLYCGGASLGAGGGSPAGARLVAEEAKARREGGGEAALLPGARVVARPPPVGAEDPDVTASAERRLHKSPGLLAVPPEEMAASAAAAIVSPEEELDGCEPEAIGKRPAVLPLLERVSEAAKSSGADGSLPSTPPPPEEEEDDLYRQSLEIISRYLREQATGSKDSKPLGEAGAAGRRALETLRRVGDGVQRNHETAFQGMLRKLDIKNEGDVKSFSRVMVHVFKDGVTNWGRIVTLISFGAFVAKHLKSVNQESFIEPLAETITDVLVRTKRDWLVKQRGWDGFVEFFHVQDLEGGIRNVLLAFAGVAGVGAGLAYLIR
Experiment: Displacement of FITC-labeled BH3 peptide from GST-tagged mouse Mcl1 after 1 hr by fluorescence polarization assay
Lab note: cut-off is 20 µM. Strictly less in IC50 is Criterion met. Exactly 20 µM or more is Criterion not met.

**Q:** Find out if reported IC50 for COc1ccc(C2C3=C(N=c4s/c(=C\c5ccc(OCc6cccc(C(=O)O)c6)c(OC)c5)c(=O)n42)c2ccccc2CC3)cc1 (stereo not given) is less than 20 µM
**A:** Criterion not met

**Q:** Dear colleague, could you confirm whether IC50 of O=C(O)c1cccc(-c2ccc(/C=c3\sc4n(c3=O)C(c3cccc(F)c3)C3=C(N=4)c4ccccc4CC3)o2)c1 (stereo not given) falls below 20 µM? Thanks.
**A:** Criterion met

**Q:** Strictly below 20 µM: is that where IC50 of COc1ccc(C2C3=C(N=c4s/c(=C\c5ccc(-c6cccc(C(=O)O)c6)o5)c(=O)n42)c2ccccc2CC3)cc1 (stereo not given) sits?
**A:** Criterion met

**Q:** Identify whether the compound COc1ccccc1C1C2=C(N=c3s/c(=C\c4cccc(OCC(=O)O)c4)c(=O)n31)c1ccccc1CC2 (stereo not given) records IC50 below 20 µM.
**A:** Criterion met

**Q:** Could you please tell me whether IC50 recorded for COc1cccc(C2C3=C(N=c4s/c(=C\c5ccc(-c6cccc(C(=O)O)c6)o5)c(=O)n42)c2ccccc2CC3)c1 (stereo not given) is less than 20 µM?
**A:** Criterion met

====

Assay: Cytotoxicity against human Bel7404 cells after 48 hrs by MTT assay
Settings: BEL-7404, 48 h
Hi! Just check whether EC50 is below 30 µM. Below gives Fulfilled, equal or above gives Not fulfilled.

**Q:** EC50 under 30 µM? Item: COc1ccccc1C1C2=C(N=c3s/c(=C\c4ccc(-c5cccc(C(=O)O)c5)cc4)c(=O)n31)c1ccccc1CC2 (configuration not stated)
**A:** Fulfilled

**Q:** State whether 30 µM exceeds EC50 recorded for COc1ccccc1C1C2=C(N=c3s/c(=C\c4ccc(OCC(=O)O)cc4)c(=O)n31)c1ccccc1CC2 (configuration not stated) .
**A:** Fulfilled

**Q:** Lab note: EC50 threshold 30 µM. Does this molecule come in strictly under it? O=C(O)c1cccc(-c2ccc(/C=c3\sc4n(c3=O)C(c3ccc(F)cc3)C3=C(N=4)c4ccccc4CC3)o2)c1 (configuration not stated)
**A:** Fulfilled

**Q:** Field: below-cutoff. Rule: recorded EC50 strictly less than 30 µM. Subject: O=C(O)c1cccc(-c2ccc(/C=c3\sc4n(c3=O)C(c3cccc([N+](=O)[O-])c3)C3=C(N=4)c4ccccc4CC3)o2)c1 (configuration not stated)
**A:** Not fulfilled

**Q:** Lab note: EC50 threshold 30 µM. Does this molecule come in strictly under it? O=C(O)c1cccc(-c2ccc(/C=c3\sc4n(c3=O)C(c3ccccc3)C3=C(N=4)c4ccccc4CC3)o2)c1 (configuration not stated)
**A:** Not fulfilled

**Q:** Is it true that EC50 reported for O=C(O)COc1cccc(/C=c2\sc3n(c2=O)C(c2cccc4ccccc24)C2=C(N=3)c3ccccc3CC2)c1 (configuration not stated) is less than 30 µM?
**A:** Fulfilled

**Q:** # TODO verify EC50 < 30 µM strictly for this molecule: COc1ccc(C2C3=C(N=c4s/c(=C\c5ccc(-c6cccc(C(=O)O)c6)o5)c(=O)n42)c2ccccc2CC3)cc1 (configuration not stated)
**A:** Fulfilled

====

Exercise: for every item that follows, state its recorded pIC50.
Biological target: Bcl-2-like protein 1 (Homo sapiens, UniProt Q07817)
Sequence (Q07817 whole entry): as the sequence (Q07817 whole entry Y195A) above, with A195Y counted along it
Test: Inhibition of human Bcl-XL
Scale for pIC50: -log10 of concentration given in mol/L; no unit attached.

**Q:** Supply pIC50 value. Item: O=C(O)c1cccc(-c2ccc(/C=c3\sc4n(c3=O)C(c3ccco3)C3=C(N=4)c4ccccc4CC3)o2)c1 (stereo not given)
**A:** 4.44

**Q:** Specify measured pIC50 for O=C(O)COc1cccc(/C=c2\sc3n(c2=O)C(c2ccccc2)C2=C(N=3)c3ccccc3CC2)c1 (stereo not given) .
**A:** 4.99

**Q:** Give recorded pIC50. O=C(O)COc1cccc(/C=c2\sc3n(c2=O)C(c2cccc(F)c2)C2=C(N=3)c3ccccc3CC2)c1 (stereo not given)
**A:** 5.27

**Q:** Report pIC50, nothing else, for this compound: COc1ccccc1C1C2=C(N=c3s/c(=C\c4ccc(-c5cccc(C(=O)O)c5)o4)c(=O)n31)c1ccccc1CC2 (stereo not given)
**A:** 5.28

**Q:** Report pIC50 for O=C(O)c1cccc(-c2ccc(/C=c3\sc4n(c3=O)C(c3cccc(F)c3)C3=C(N=4)c4ccccc4CC3)o2)c1 (stereo not given)
**A:** 5.52

**Q:** For CCOC(=O)COc1cccc(/C=c2\sc3n(c2=O)C(c2ccccc2OC)C2=C(N=3)c3ccccc3CC2)c1 (stereo not given) , write its pIC50.
**A:** 4.00

**Q:** Report pIC50 for COc1ccccc1C1C=C(c2ccccc2)N=c2s/c(=C\c3cccc(OCC(=O)O)c3)c(=O)n21 (stereo not given)
**A:** 4.14
